Listed molecules paired with reported IC50
target: Rac GTPase-activating protein 1 (Homo sapiens); test: MgcRacGAP GTPase-activating activity inhibitors, confirmation, biochemical, ADP Hunter fluorescence, primary and confirmatory (AID 624330); format: functional
Sequence (Q9H0H5 whole entry): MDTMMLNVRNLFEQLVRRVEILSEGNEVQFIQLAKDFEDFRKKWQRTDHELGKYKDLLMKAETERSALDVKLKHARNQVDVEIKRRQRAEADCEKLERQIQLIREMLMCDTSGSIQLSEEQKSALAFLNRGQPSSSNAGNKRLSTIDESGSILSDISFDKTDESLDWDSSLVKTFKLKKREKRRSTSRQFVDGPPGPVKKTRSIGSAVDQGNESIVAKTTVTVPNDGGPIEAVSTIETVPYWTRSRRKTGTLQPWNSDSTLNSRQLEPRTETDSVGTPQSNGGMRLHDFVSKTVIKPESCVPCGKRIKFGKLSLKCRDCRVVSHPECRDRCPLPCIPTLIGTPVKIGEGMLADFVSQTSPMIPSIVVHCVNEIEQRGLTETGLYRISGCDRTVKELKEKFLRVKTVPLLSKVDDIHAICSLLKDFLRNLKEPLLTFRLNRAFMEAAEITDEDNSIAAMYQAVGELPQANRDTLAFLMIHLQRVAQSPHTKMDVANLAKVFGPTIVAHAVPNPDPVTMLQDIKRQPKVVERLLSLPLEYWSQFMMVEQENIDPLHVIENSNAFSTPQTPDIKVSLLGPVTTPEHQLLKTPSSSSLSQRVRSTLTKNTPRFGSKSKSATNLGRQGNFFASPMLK
Activity calls are given as the source filed them. No rule for the calls is given here.

Please review the following examples before continuing.
Oc1ccc2ccccc2c1Br | 20.3 µM (active)
Nc1ccc2c(c1)C(=O)c1cc(N)c(Cl)cc1-2 | 22.1 µM (active)
O=C(/C=C/c1ccc(O)c(O)c1)NC(=O)c1ccccc1O | 20.2 µM (active)

Value of IC50 reported for the molecule Fc1ccc(CNCc2ccccc2Cl)cc1 is 213 µM (active)

Value of IC50 reported for the molecule COc1cc(/C=N/Nc2nc(C)cc(O)n2)ccc1O is 23.9 µM (active)

Value of IC50 reported for the molecule Oc1ccc(/C=N/NC(=S)NCC2CCCO2)cc1 (stereo not drawn) is 30.8 µM (active)

Value of IC50 reported for the molecule CS(=O)(=O)N1CCN(C2C3CC4CC(C3)CC2C4)CC1 (stereo not drawn) is 152 µM (active)

Value of IC50 reported for the molecule O=C(CN1CCN(c2ncccn2)CC1)N1CCCC1 is 176 µM (active)

Value of IC50 reported for the molecule CCOc1cc(/C=N/N2CCN(Cc3ccccc3)CC2)ccc1O is 86.7 µM (active)

Value of IC50 reported for the molecule COc1cc(/C=N/NC2=NCCCCC2)ccc1O is 22.5 µM (active)

Value of IC50 reported for the molecule CC(=O)OCCNc1cc(N2CCN(C)CC2)c2noc3c2c1C(=O)c1ccccc1-3 is 117 µM (active)

Value of IC50 reported for the molecule COc1cc(/C=N/NC(=O)CCN2CCCCC2)ccc1O is 32.1 µM (active)

Value of IC50 reported for the molecule O=C(/C=C/Nc1ccc(Nc2ccccc2)cc1)c1cccs1 is 230 µM (active)

Value of IC50 reported for the molecule COc1ccc2c(/C=N/Nc3ccc(C(=O)O)cc3)c[nH]c2c1 is 54.9 µM (active)

Value of IC50 reported for the molecule Cc1cc(-c2nnc(S)n2/N=C/c2sccc2C)[nH]n1 is 74.9 µM (active)

Value of IC50 reported for the molecule CCOc1cc(/C=C2\C(=O)N(Cc3ccco3)C(C)=C2C(=O)OC)ccc1O is 69.9 µM (active)

Value of IC50 reported for the molecule COc1cc(/C=C(\C#N)c2nc3ccccc3[nH]2)ccc1O is 15.9 µM (active)

Value of IC50 reported for the molecule O=S(=O)(O)c1cc(O)c2cc(Nc3ccccc3)ccc2c1 is 37.9 µM (active)
